Property: Relative cAMP EC50; scope: individual binders
Target: human glucagon receptor (human) (UniProt P47871)
Sequence (P47871 26-477): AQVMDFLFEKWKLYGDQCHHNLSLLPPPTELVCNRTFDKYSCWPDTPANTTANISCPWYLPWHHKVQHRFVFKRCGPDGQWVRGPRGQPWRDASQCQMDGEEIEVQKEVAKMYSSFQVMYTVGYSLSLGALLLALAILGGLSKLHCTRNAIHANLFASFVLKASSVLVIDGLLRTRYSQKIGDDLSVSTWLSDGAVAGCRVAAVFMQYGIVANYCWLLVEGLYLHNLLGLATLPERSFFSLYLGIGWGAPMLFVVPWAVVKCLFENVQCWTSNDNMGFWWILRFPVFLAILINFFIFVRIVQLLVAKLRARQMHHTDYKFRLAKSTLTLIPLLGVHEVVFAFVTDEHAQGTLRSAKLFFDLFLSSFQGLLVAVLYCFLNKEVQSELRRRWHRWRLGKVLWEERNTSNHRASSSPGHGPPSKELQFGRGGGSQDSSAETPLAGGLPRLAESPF
Protocol Details: cell-based or functional assay
Non-standard residues stand in square brackets, D forms with d. No end group written: not given here. αMePhe(2-F) = C[C@](N)(Cc1ccccc1F)C(=O)O; Aib = CC(C)(N)C(=O)O
Please don't drop the unit; write it after the number.

Below, each entry is followed by its recorded Relative cAMP EC50 result.
* Y[Aib]QGT[αMePhe(2-F)]TSDYSILLDKQAAKEFIEYLIEGGPSSGAPPPSEG-NH2 (not fully specified (residue 20)) [Example 340] | 2.02 nM
* YXQGTXTSDXXIXLDXKAQXXFIEXLTEGGPSSGEPPPEGTEEE (non-natural residues; (γGlu)2-C18 diacid on Lys; C-terminal amide; synthetic construct; SITE 2: note = 2-Aminoisobutyric Acid; SITE 6: note = alpha-methyl-2-fluoro-L-phenylalanine; SITE 10: note = 3-(4-Pyridyl)-L-alanine; SITE 11: note = alpha-methyl-L-serine; SITE 13: note = alpha-methyl-leucine; SITE 16: note = L-ornithine; SITE 17: note = Lysine is chemically mo) [Example 598] | 8.79 nM

Okay, next one:
Bench note: what Relative cAMP EC50 did YXQGTXTSDXXIXLDXKAQXEFIEXLIEGGPSSGEPPPSGS (not fully specified; synthetic construct; SITE 2: note = 2-Aminoisobutyric Acid; SITE 6: note = alpha-methyl-2-fluoro-L-phenylalanine; SITE 10: note = 3-(4-Pyridyl)-L-alanine; SITE 11: note = alpha-methyl-L-serine; SITE 13: note = alpha-methyl-leucine; SITE 16: note = L-ornithine; SITE 17: note = Lysine is chemically mo) [Example 1208] show? 3.52 nM
